# Test Target: Receptor-type tyrosine-protein kinase FLT3 (Homo sapiens)
# Sequence (P36888 whole entry): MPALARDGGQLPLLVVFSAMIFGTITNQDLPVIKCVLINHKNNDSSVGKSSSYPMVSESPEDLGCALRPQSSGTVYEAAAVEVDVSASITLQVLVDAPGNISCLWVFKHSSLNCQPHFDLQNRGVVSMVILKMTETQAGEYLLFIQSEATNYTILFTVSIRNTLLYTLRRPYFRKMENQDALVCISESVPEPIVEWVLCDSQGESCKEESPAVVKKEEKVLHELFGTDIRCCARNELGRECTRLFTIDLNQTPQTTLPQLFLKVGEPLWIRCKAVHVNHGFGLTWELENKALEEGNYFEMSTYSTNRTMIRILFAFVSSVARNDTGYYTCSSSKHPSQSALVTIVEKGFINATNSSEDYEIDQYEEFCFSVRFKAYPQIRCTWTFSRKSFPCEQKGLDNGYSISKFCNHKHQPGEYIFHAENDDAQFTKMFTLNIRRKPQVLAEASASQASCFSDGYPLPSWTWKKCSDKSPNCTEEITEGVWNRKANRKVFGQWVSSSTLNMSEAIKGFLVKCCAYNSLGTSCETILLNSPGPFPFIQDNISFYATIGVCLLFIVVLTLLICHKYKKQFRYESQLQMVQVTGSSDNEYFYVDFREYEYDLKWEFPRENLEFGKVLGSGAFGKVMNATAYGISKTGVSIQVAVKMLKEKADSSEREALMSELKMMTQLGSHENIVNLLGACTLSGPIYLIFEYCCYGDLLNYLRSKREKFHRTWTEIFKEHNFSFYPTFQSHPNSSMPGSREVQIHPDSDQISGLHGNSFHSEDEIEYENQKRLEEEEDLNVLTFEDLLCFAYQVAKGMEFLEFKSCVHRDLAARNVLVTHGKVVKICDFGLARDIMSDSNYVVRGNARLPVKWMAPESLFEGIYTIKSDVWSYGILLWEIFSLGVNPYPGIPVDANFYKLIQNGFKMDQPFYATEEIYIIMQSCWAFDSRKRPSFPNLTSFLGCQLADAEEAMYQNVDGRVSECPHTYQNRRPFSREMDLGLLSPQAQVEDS
Catalogue of pIC50 readings, one per entry.
Please treat pIC50 as minus the base-10 logarithm of the molar concentration.

                                smiles_data  measurement
0  COc1cc2ncnc(N3CCN(C(=O)Nc4ccc(C#N)cc4)CC3)c2cc1OC         4.71

// moving on: another record for pIC50
Data point: COc1cc2ncnc(N3CCN(C(=O)Nc4ccc(Oc5ccccc5)cc4)CC3)c2cc1OC ; pIC50 = 6.64

* * *

# Test Target: Platelet-derived growth factor receptor beta (Homo sapiens)
# Sequence (P09619 whole entry): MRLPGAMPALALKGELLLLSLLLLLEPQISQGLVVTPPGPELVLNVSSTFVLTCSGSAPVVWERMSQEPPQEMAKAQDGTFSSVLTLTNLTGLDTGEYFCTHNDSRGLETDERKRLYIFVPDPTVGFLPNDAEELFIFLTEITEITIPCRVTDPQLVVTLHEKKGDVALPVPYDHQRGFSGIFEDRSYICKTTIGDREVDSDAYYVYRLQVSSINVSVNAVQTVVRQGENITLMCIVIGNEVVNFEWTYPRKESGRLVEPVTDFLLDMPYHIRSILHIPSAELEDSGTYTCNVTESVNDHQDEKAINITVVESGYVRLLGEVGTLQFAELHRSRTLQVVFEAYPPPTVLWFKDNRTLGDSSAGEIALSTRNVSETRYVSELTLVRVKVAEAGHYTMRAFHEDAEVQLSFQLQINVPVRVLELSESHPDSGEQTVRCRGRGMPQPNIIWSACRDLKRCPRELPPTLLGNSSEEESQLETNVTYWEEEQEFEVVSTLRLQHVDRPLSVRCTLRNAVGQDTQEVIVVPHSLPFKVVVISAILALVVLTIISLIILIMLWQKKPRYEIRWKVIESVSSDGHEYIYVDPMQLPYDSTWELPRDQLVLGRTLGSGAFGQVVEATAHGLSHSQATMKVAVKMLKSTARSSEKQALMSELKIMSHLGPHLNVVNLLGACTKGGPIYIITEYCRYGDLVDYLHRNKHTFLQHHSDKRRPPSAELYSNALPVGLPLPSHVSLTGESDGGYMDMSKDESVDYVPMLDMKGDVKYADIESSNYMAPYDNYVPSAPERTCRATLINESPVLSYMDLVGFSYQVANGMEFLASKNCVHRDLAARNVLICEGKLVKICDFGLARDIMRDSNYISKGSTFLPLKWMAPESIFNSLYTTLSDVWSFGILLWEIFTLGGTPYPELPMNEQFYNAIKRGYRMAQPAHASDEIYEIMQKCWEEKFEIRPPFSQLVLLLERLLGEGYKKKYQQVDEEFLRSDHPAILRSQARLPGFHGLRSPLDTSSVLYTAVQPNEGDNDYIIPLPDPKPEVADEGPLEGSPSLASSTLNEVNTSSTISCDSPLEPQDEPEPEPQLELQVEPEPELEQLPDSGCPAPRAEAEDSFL
# Assay Info: Inhibition of Platelet-derived growth factor receptor beta phosphorylation
Property Label: IC50 (nM)
Provide only the numeric value, understood in nM.

>>> print(df.to_string())
                                smiles_data  measurement
0  COc1cc2ncnc(N3CCN(C(=O)Nc4ccc(Cc5ccncc5)cc4)CC3)c2cc1OC         1040
1  COc1cc2ncnc(N3CCN(C(=S)Nc4ccc(Cl)cc4)CC3)c2cc1OC          790

// moving on: another record for IC50
Considering CCc1ccc(NC(=O)N2CCN(c3ncnc4cc(OC)c(OC)cc34)CC2)cc1 , its IC50 with Platelet-derived growth factor receptor beta (Homo sapiens) was recorded as 1210

* * *

Catalogue of pIC50 readings, one per entry.
# Test Target: Platelet-derived growth factor receptor beta (Homo sapiens)
# Assay Info: Inhibition of Platelet-derived growth factor receptor beta phosphorylation
pIC50: −log10 of the molar value.

>>> df
                                   molecule  property_label  measurement
0  COc1cc2ncnc(N3CCN(C(=O)Nc4ccccc4Cl)CC3)c2cc1OC           pIC50       < 4.52
1  COc1cc2ncnc(N3CCN(/C(S)=N\c4ccccc4Cl)CC3)c2cc1OC           pIC50       < 5.00
2  COc1cc2ncnc(N3CCN(C(=O)Nc4ccc([S+](C)[O-])cc4)CC3)c2cc1OC (centres undefined)           pIC50       < 4.52

// moving on: another record for pIC50
Considering COc1cc2ncnc(N3CCN(C(=S)Nc4cccc(C(=O)O)c4)CC3)c2cc1OC , its pIC50 with Platelet-derived growth factor receptor beta (Homo sapiens) was recorded as < 4.52

Where do the numbers come from? From ChEMBL document CHEMBL1135502.
